- tested.target: b-Raf (V600E) (Homo sapiens (Human), UniProt P15056, V600E)
- Sequence (P15056 whole entry V600E): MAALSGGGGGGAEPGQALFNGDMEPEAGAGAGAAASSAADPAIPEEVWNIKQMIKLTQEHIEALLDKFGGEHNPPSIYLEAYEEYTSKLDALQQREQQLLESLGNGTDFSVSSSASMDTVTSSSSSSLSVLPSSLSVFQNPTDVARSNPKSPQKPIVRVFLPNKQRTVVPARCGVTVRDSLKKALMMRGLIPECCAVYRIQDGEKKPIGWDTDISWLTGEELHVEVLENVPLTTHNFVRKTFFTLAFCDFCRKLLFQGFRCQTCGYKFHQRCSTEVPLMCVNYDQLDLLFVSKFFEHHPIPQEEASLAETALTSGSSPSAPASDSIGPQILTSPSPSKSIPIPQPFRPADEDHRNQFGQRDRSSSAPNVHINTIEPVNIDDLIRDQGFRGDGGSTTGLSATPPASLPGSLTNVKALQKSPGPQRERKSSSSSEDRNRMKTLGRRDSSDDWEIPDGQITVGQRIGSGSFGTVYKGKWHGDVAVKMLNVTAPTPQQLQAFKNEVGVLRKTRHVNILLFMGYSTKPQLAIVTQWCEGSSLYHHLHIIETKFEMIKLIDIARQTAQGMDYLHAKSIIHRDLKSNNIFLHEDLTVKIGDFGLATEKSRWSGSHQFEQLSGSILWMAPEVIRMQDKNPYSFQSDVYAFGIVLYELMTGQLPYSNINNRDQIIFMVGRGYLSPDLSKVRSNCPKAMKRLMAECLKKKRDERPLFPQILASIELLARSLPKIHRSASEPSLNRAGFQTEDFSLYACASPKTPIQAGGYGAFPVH
- recorded.conditions: read-out: b-Raf IC-50; AlphaScreen, 60 min pre-incubation, 3 hours reaction
pIC50: −log10 of the molar value.
assay.metric: pIC50

>>> readout_value("Cc1ncc(NC(=O)c2cccc(C(C)(C)S(C)(=O)=O)c2)cc1-c1cc(N2CCOCC2)n(C)c(=O)c1")
7.22
>>> readout_value("Cc1ncc(NC(=O)c2ccnc(C(C)(C)F)c2)cc1-c1cc(N2CCOCC2)n2nccc2n1")
8.46
>>> readout_value("Cc1ccc(NC(=O)c2ccnc(C(C)(F)F)c2)cc1-c1cc(N2CCOCC2)nc(N(C)C)n1")
8.38
>>> readout_value("COc1nnc(-c2cc(NC(=O)c3cnnc(C(C)(C)C#N)c3)ccc2C)cc1N1CCOCC1")
8.27
>>> readout_value("CCOc1nnc(-c2cc(NC(=O)c3ccnc(C(C)(C)C#N)c3)cnc2C)cc1N1CCOCC1")
8.00
>>> readout_value("CCC(F)(F)c1cc(C(=O)Nc2ccc(C)c(-c3cc(N4CCOCC4)c(OC)nn3)c2)ccn1")
8.68
>>> readout_value("CCOc1nnc(-c2cc(NC(=O)c3cccc(C(F)(F)F)c3)cnc2C)cc1N1CCOCC1")
9.05
>>> readout_value("CCNc1nc(-c2cc(NC(=O)c3ccnc(C(C)(C)C#N)c3)ccc2C)cc(N2CCOC[C@@H]2C)n1")
8.60
>>> readout_value("Cc1ccc(NC(=O)c2ccnc(C(C)C)c2)cc1-c1cc(N2CCOCC2)n(C)c(=O)c1")
9.22
>>> readout_value("Cc1ccc(NC(=O)c2ccnc(C(C)(C)C#N)c2)cc1-c1cc(N2CCOCC2)nc(N2C(=O)OC[C@@H]2C)n1")
7.65
>>> readout_value("CCOc1nnc(-c2cc(NC(=O)c3ccnc(C(C)(F)F)c3)ccc2C)cc1N1CCOCC1")
8.89
>>> readout_value("Cc1ccc(NC(=O)c2ccnc(S(C)(=O)=O)c2)cc1-c1cc(N2CCOCC2)nc(N(C)C)n1")
7.94
>>> readout_value("Cc1ncc(NC(=O)c2ccnc(C(C)(C)F)c2)cc1-c1cc(N2CCOCC2)c(OC2CCOCC2)nn1")
8.54
>>> readout_value("Cc1ccc(NC(=O)c2ccnc(C(C)(F)F)c2)cc1-c1cc(N2C3CCC2COC3)n(C)c(=O)c1")
8.25
>>> readout_value("Cc1ccc(NC(=O)c2ccnc(C(C)(C)C#N)c2)cc1-c1cc(N2CCOCC2)c(=O)n(C)n1")
8.27
>>> readout_value("Cc1ncc(NC(=O)c2ccnc(C(F)(F)F)c2)cc1-c1cc(N2CCOCC2)n2nccc2n1")
8.96
>>> readout_value("CCN(C)c1cc(C(=O)Nc2ccc(C)c(-c3cc(N4CCOCC4)c(=O)n(C)c3)c2)ccn1")
8.37
>>> readout_value("Cc1ccc(NC(=O)c2ccnc(C(F)F)c2)cc1-c1cc(N2CCOCC2)n2nccc2n1")
9.40
>>> readout_value("Cc1ncc(NC(=O)c2ccnc(S(C)(=O)=O)c2)cc1-c1cc(N2CCOCC2)n(C)c(=O)c1")
7.68
>>> readout_value("Cc1ccc(NC(=O)c2ccnc(C(C)(C)F)c2)cc1-c1cc(N2C3CCC2COC3)c(=O)n(C)n1")
8.39
>>> readout_value("CCNc1nc(-c2cc(NC(=O)c3ccnc(C(C)C)c3)ccc2C)cc(N2CCOCC2)n1")
8.92
>>> readout_value("Cc1ccc(NC(=O)c2ccnc(C(C)(F)F)c2)cc1-c1cc(N2C3CCC2COC3)c(=O)n(C)n1")
8.55
>>> readout_value("Cc1ncc(NC(=O)c2ccnc(C(C)(F)F)c2)cc1-c1cc(N2CCOCC2)n(C)c(=O)c1")
8.12
>>> readout_value("CCOc1nnc(-c2cc(NC(=O)c3ccnc(C(C)(C)O)c3)ccc2C)cc1N1CCOCC1")
8.55
>>> readout_value("CCC(F)(F)c1cc(C(=O)Nc2cnc(C)c(-c3cc(N4CCOCC4)c(=O)n(C)n3)c2)ccn1")
8.09
>>> readout_value("Cc1ncc(NC(=O)c2ccnc(C(C)(F)F)c2)cc1-c1cncc(N2CCOCC2)n1")
8.36
>>> readout_value("CCC(F)(F)c1cc(C(=O)Nc2ccc(C)c(-c3cc(N4CCOCC4)c(=O)n(C)n3)c2)ccn1")
8.89
>>> readout_value("Cc1ncc(NC(=O)c2ccnc(C(C)(C)O)c2)cc1-c1cc(N2CCOCC2)c(OC2CCOCC2)nn1")
7.77
>>> readout_value("Cc1ncc(NC(=O)c2cccc(C(F)F)c2)cc1-c1cc(N2CCOCC2)nc(N2CC(O)C2)n1")
8.28
>>> readout_value("Cc1ccc(NC(=O)c2cccc(C(F)(F)F)c2)cc1-c1nc(N2CCOCC2)c2sccc2n1")
9.70
